- experimental system: Glutamate receptor ionotropic, NMDA 1 (Rattus norvegicus)
quantity name: IC50
Remember to put the unit after the number in your answer.

Ask: Quote IC50 reported for CC[N@@+]1(CCO)[C@H]2Cc3ccccc3[C@@]1(C)c1ccccc12 please.
Result: 360 nM
